test: Solubility at pH 7.4; format: physicochemical; settings: buffer
Assignment: determine reported solubility for the given molecules.
Expressed in µg/mL, but write only the number.

Please give the documented solubility of O=C(O)C(c1ccccc1)(c1ccccc1)c1ccccc1.OCc1cc([C@@H](O)CNCCCCCCOCCOCc2c(Cl)cccc2Cl)ccc1O [VILANTEROL TRIFENATATE] 33

Specify solubility for O=C(O)/C(=C/c1ccccc1)c1ccccc1.OCc1cc([C@@H](O)CNCCCCCCOCCOCc2c(Cl)cccc2Cl)ccc1O [VILANTEROL .ALPHA.-PHENYL CINNAMATE] and stop. 190

====

Consider the following compounds; for each one, report its EC50.
Lab book: enter the figure in nM, no units written.

Please look at NC(=O)Nc1cccc(COCCOCCCCCCNC[C@H](O)c2ccc(O)c(CO)c2)c1 and tell me its recorded EC50 on Beta-2 adrenergic receptor (Homo sapiens, UniProt P07550). 1.58

Please indicate recorded EC50 of NS(=O)(=O)c1cccc(COCCOCCCCCCNC[C@H](O)c2ccc(O)c(CO)c2)c1 measured with Beta-2 adrenergic receptor (Homo sapiens, UniProt P07550). 1.58

// output EC50; input OCc1cc([C@@H](O)CNCCCCCCOCCOCc2ccc(O)cc2)ccc1O ; system Beta-2 adrenergic receptor (Homo sapiens, UniProt P07550) 7.94

System Beta-2 adrenergic receptor (Homo sapiens, UniProt P07550). Read-out EC50. Item Cc1ccc(COCCOCCCCCCNC[C@H](O)c2ccc(O)c(CO)c2)cc1 . Report value. 2.51

// fetch EC50 for CC(=O)O.OCc1cc([C@@H](O)CNCCCCCCOCCOCc2ccccc2)ccc1O ; system: Beta-2 adrenergic receptor (Homo sapiens, UniProt P07550) 2.51

Fill: EC50 (Beta-2 adrenergic receptor (Homo sapiens, UniProt P07550)) for this compound NS(=O)(=O)c1ccc(COCCOCCCCCCNC[C@H](O)c2ccc(O)c(CO)c2)cc1 2

Consider the compound CC(=O)O.OCc1cc([C@@H](O)CNCCCCCCOCCOCc2cccc3ccccc23)ccc1O tested on Beta-2 adrenergic receptor (Homo sapiens, UniProt P07550); state its EC50. 0.126

Look up and report EC50, with Beta-2 adrenergic receptor (Homo sapiens, UniProt P07550) as system, for OCc1cc([C@@H](O)CNCCCCCCOCCOCc2ccc(Cl)cc2)ccc1O 2.51

Report measured EC50 on Beta-2 adrenergic receptor (Homo sapiens, UniProt P07550); entry: CS(=O)(=O)Nc1cccc(COCCOCCCCCCNC[C@H](O)c2ccc(O)c(CO)c2)c1 0.251

Measured values drawn from ChEMBL document CHEMBL1155518 for this set.
